Could you please report measured protein stability index for the items listed next?
B1: APBB1IP (parent)
chain: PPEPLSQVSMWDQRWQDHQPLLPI

variants of: B1; test: protein stability index of a GFP-peptide fusion (GPS, HEK-293T) (PSI 1-6); higher = more stable; settings: c terminus: a fixed tail appended;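 also: lentivirally expressed fusions sorted by FACS into six bins by GFP to DsRed ratio, PSI derived from sequencing read proportions per bin multiplied by bin number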
Lab note: jot down the number only; don't add units.

Problem: Quick one: protein stability index for `P1Q` ?
Result: 2.89

Problem: Quick one: protein stability index for `S6T` ?
Result: 2.76

Problem: Quick one: protein stability index for `P2C` ?
Result: 2.44

Problem: Quick one: protein stability index for `L21W` ?
Result: 2.74

Problem: Quick one: protein stability index for `P4Q` ?
Result: 3.34

Problem: Quick one: protein stability index for `S9A` ?
Result: 3.4

Problem: Quick one: protein stability index for `M10Y` ?
Result: 2.51

Problem: Quick one: protein stability index for `P4S` ?
Result: 2.61

Problem: Quick one: protein stability index for `P1F` ?
Result: 2.17

Problem: Quick one: protein stability index for `R14E` ?
Result: 3.74

Problem: Quick one: protein stability index for `S6G` ?
Result: 2.9

Problem: Quick one: protein stability index for `V8E` ?
Result: 3.48

Problem: Quick one: protein stability index for `E3K` ?
Result: 3.84

Problem: Quick one: protein stability index for `P2I` ?
Result: 2.42

Problem: Quick one: protein stability index for `D17W` ?
Result: 2.79

Problem: Quick one: protein stability index for `V8K` ?
Result: 3.25

Problem: Quick one: protein stability index for `Q13N` ?
Result: 3.5

Problem: Quick one: protein stability index for `D17M` ?
Result: 3.24

Problem: Quick one: protein stability index for `D12F` ?
Result: 2.13

Problem: Quick one: protein stability index for `M10C` ?
Result: 3.52

Problem: Quick one: protein stability index for `Q16Y` ?
Result: 2.98

Problem: Quick one: protein stability index for `D12H` ?
Result: 2.6

Problem: Quick one: protein stability index for `I24Q` ?
Result: 3.93

Problem: Quick one: protein stability index for `P23W` ?
Result: 1.36

Problem: Quick one: protein stability index for `Q13M` ?
Result: 3.46

Problem: Quick one: protein stability index for `D17G` ?
Result: 2.81

Problem: Quick one: protein stability index for `V8S` ?
Result: 3.52

Problem: Quick one: protein stability index for `R14Y` ?
Result: 3.12

Problem: Quick one: protein stability index for `L22T` ?
Result: 3.74

Problem: Quick one: protein stability index for `P23A` ?
Result: 2.05

Problem: Quick one: protein stability index for `D12Y` ?
Result: 2.31

Problem: Quick one: protein stability index for `I24K` ?
Result: 3.92

Problem: Quick one: protein stability index for `D12S` ?
Result: 2.73

Problem: Quick one: protein stability index for `S6D` ?
Result: 3.45

Problem: Quick one: protein stability index for `W11A` ?
Result: 4.11

Problem: Quick one: protein stability index for `P2K` ?
Result: 2.83

Problem: Quick one: protein stability index for `D17N` ?
Result: 3.15

Problem: Quick one: protein stability index for `M10K` ?
Result: 2.92

Problem: Quick one: protein stability index for `H18S` ?
Result: 3.11

Problem: Quick one: protein stability index for `R14A` ?
Result: 2.75

Problem: Quick one: protein stability index for `P20H` ?
Result: 3.23

Problem: Quick one: protein stability index for `Q16T` ?
Result: 2.46

Problem: Quick one: protein stability index for `L22N` ?
Result: 3.55

Problem: Quick one: protein stability index for `Q13S` ?
Result: 3.29

Problem: Quick one: protein stability index for `D12K` ?
Result: 3.37

Problem: Quick one: protein stability index for `V8G` ?
Result: 3.38
